Source of measurements: patent US11180510B2

- target_entity: BRD4(BD1) (Homo sapiens)
- assay_overview: HTRF assay, BRD4(BD1)/histone peptide interaction
- Format: binding
- Parameters: made in house
- test_conditions: HTRF; triplicates; NA = IC50 > maximal concentration of compound used
pIC50: −log10 of the molar value.
attribute_measured: pIC50

> print(dat)
                                   compound  attribute.measured  relational.operator  observed
1  CCn1cnc2c1c(=O)[nH]c(=O)n2Cc1ccc(CNC(=O)CCC(C)C)cc1 [Compound 36a]               pIC50                    =      5.66
2  CCn1cnc2c1c(=O)[nH]c(=O)n2Cc1ccc(CNS(=O)(=O)c2ccc(Oc3ccc(C(F)(F)F)cc3)cc2)cc1 [Compound 44c]               pIC50                    =      6.28
3  O=C1CCCc2cc(S(=O)(=O)NCc3ccc(C(=O)NCc4ccccn4)cc3)ccc2N1 [Compound 14a]               pIC50                    <      4.60
4  CCn1cnc2c1c(=O)[nH]c(=O)n2Cc1ccc(CNS(=O)(=O)CCc2ccccc2)cc1 [Compound 22c]               pIC50                    =      5.85
5  Cc1noc(C)c1CNC(=O)C1CCC(CNS(=O)(=O)c2ccc3c(c2)CCCC(=O)N3)CC1 (stereo not shown)               pIC50                    =      4.66
6  CCn1cnc2c1c(=O)[nH]c(=O)n2Cc1ccc(CNS(=O)(=O)c2ccc(C(=O)N3CCOCC3)cc2)cc1 [Compound 44b]               pIC50                    =      6.91
7  CCn1cnc2c1c(=O)[nH]c(=O)n2Cc1ccc(CNS(=O)(=O)c2cn(C)cn2)cc1 [Compound 23a]               pIC50                    =      5.46
